Tested on: human monoclonal antibody CRJB
Format: binding
Test readout: Binding of CRJB (10 μg/ml) to looped/cyclic peptide (PEPSCAN-ELISA signal)

TTKESLVIISPSVAD 71
KHFRPTPDACRAAYN 72
SVADLDPYDRSLHSR 71
ILAIKMNGFTCTGVV 72

* * *

System: human monoclonal antibody CR57
Assay type: binding
Test readout: Binding of human monoclonal antibody CR57 to linear peptide (PEPSCAN-ELISA signal)

VHPLADPSTVFKDGD 98
PLADPSTVFKDGDEA 99
VFKDGDEAEDFVEVH 100
DPSTVFKDGDEAEDF 98

* * *

Catalogue of Binding of CRJA (10 μg/ml) to looped/cyclic peptide (PEPSCAN-ELISA signal) readings, one per entry.
Test system: human monoclonal antibody CRJA
Format: binding
Test readout: Binding of CRJA (10 μg/ml) to looped/cyclic peptide (PEPSCAN-ELISA signal)

HLSCPNNLVVEDEGC 92
WKMAGDPRYEESLHN 90
VAVSSTYCSTNHDYT 88
ADLDPYDRSLHSRVF 92
DLDPYDRSLHSRVFP 92
STYCSTNHDYTIWMP 90
DPRYEESLHNPYPDY 91
VTTTFKRKHFRPTPD 89
RYEESLHNPYPDYRW 91
VSSTYCSTNHDYTIW 88
PDYRWLRTVKTTKES 90
YPDYRWLRTVKTTKE 92

* * *

System: human monoclonal antibody CRJB
Type: binding
Catalogue of Binding of CRJB (10 μg/ml) to looped/cyclic peptide (PEPSCAN-ELISA) readings, one per entry.
Test readout: Binding of CRJB (10 μg/ml) to looped/cyclic peptide (PEPSCAN-ELISA)

EMQSSLLQQHMELLE 98
EILPSKGCLRVGGRC 97
YKSLKGACKLKLCGV 82
SLKGACKLKLCGVLG 79
TCGFVDERGLYKSLK 79

* * *

Catalogue of Binding of CRJB (10 μg/ml) to looped/cyclic peptide (PEPSCAN-ELISA signal) readings, one per entry.
Test system: human monoclonal antibody CRJB
Assay type: binding
Test readout: Binding of CRJB (10 μg/ml) to looped/cyclic peptide (PEPSCAN-ELISA signal)

WLRTVKTTKESLVII 78
GPWSPIDIHHLSCPN 78
GKCSGVAVSSTYCST 74
ESLHNPYPDYRWLRT 92
PDACRAAYNWKMAGD 76
STYCSTNHDYTIWMP 82
TKESLVIISPSVADL 80
IISPSVADLDPYDRS 93
CSTNHDYTIWMPENP 72
VIISPSVADLDPYDR 82
IDIHHLSCPNNLVVE 59
RVFPSGKCSGVAVSS 89

* * *

System: human monoclonal antibody CR57
Type: binding
Decide by Binding of CR57 to linear peptide (PEPSCAN-ELISA signal): equal to or exceeding 80 means 1 (yes), less means 0 (no).

ELLESSVIPLVHPLA 1 (yes)
RLMDGTWVAMQTSNE 1 (yes)
GACKLKLCGVLGLRL 1 (yes)
SIMTTKSVSFRRLSH 0 (no)
GRCHPHVNGVFFNGI 1 (yes)
LESIMTTKSVSFRRL 0 (no)
MQTSNETKWCPPDQL 1 (yes)
KAYTIFNKTLMEADA 1 (yes)
LRVGGRCHPHVNGVF 1 (yes)
REECLDALESIMTTK 1 (yes)
SLLQQHMELLESSVI 1 (yes)
FSYMELKVGYILAIK 1 (yes)
ESLVIISPSVADLDP 1 (yes)
NLHDFRSDEIEHLVV 1 (yes)
AENYTNFVGYVTTTF 0 (no)
LVVEDEGCTNLSGFS 0 (no)
AYTIFNKTLMEADAH 1 (yes)
ETCGFVDERGLYKSL 0 (no)
NGVFFNGIILGPDGN 0 (no)
DEGCTNLSGFSYMEL 0 (no)
KLVPGFGKAYTIFNK 0 (no)
PSGKCSGVAVSSTYC 0 (no)
RKLVPGFGKAYTIFN 0 (no)
LMEADAHYKSVRTWN 0 (no)
